Target: PDE4D (Homo sapiens, UniProt Q08499)
Construct: PDE4D: The catalytic domain of human PDE4B from S3 16-V692; His6 (N); thrombin cleavage site (N); made in house; host or cells: E. coli
Sequence (Q08499 380-756): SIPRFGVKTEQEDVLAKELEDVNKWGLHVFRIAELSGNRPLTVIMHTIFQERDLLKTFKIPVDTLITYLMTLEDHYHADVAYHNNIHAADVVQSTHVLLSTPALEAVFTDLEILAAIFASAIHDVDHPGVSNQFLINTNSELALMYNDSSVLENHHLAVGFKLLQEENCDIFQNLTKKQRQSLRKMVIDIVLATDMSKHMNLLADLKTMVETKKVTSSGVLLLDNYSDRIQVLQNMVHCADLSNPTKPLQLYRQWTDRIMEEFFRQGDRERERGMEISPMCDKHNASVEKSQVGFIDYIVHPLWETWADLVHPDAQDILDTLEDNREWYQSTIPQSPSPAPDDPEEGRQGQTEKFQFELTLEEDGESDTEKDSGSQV
Test: PDE4 IC50 determination by Scintillation Proximity Assay, PDE4D
Format: biochemical
Conditions: second part of Table 2B (2-23 to 2-103), column 5; column is PDE4D in first part; read-out: IC 50 vs. indicated assay h TNFα
Experimental: IC50s were determined by Scintillation Proximity Assay (SPA). The principle of the assay is based on the fact that cAMP, the PDE4 substrate, binds weakly to Yittrium Silicate SPA beads, whereas AMP, the product of PDE4 hydrolysis binds strongly. Thus, the extent of PDE4 hydrolysis of a sample of [^3H]cAMP can be measured because only the [^3H]AMP produced by PDE4 hydrolysis will bind to the SPA beads and produce a scintillation signal. PDE4 enzymes used for IC50 assays were: […]
Assay endpoint: IC50

{"Chemical smiles": "COc1ccc(Nc2nc(N)c(C(=O)C3CCCC3)s2)cc1", "Target": "PDE4D (Homo sapiens, UniProt Q08499)", "Assay endpoint": "IC50", "Endpoint value": "> 10 µM"}
{"Chemical smiles": "Nc1nc(Nc2ccc(Oc3ccccc3)cc2)sc1C(=O)c1cccc(Cl)c1", "Target": "PDE4D (Homo sapiens, UniProt Q08499)", "Assay endpoint": "IC50", "Endpoint value": "< 10 µM"}
{"Chemical smiles": "Nc1nc(Nc2c(Cl)cccc2Cl)sc1C(=O)c1ccc(OC(F)F)cc1", "Target": "PDE4D (Homo sapiens, UniProt Q08499)", "Assay endpoint": "IC50", "Endpoint value": "< 10 µM"}
{"Chemical smiles": "Nc1nc(Nc2ccccc2F)sc1C(=O)C1CCCC1", "Target": "PDE4D (Homo sapiens, UniProt Q08499)", "Assay endpoint": "IC50", "Endpoint value": "< 10 µM"}

Please examine the following record next.
Readout IC50 for `Nc1nc(Nc2ccc(Oc3ccccc3)cc2)sc1C(=O)c1ccc(OC(F)F)cc1` , test system PDE4D (Homo sapiens, UniProt Q08499), was > 10 µM
